system: HCT-116; assay: Cytotoxicity against human HCT116 cells; type: functional, cell-based
measuredParameter: pIC50
Scale: negative log10 of molar concentration, which is what pIC50 denotes.

# smilesRepr, pIC50
data = [
    ("CC[C@H](C)[C@@H]1NC(=O)[C@@H](CC(C)C)NC(=O)[C@H]([C@@H](C)O)NC(=O)[C@H](CO)NC(=O)[C@@H](CC(C)C)NC(=O)C[C@@H](CCCCCCC(C)C)OC1=O", 4.30),
]

// moving on: another record for pIC50
In plain terms, `CCCCCC/C=C\CCC[C@@H]1CC(=O)N[C@H](CC(C)C)C(=O)N[C@@H](CO)C(=O)N[C@@H]([C@@H](C)O)C(=O)N[C@H](CC(C)C)C(=O)N[C@@H]([C@@H](C)CC)C(=O)O1` has a documented pIC50 of 4.55

---

Catalogue of compounds with associated IC50
tested on: HCT-116; test: Cytotoxicity against human HCT116 cells; format: functional, cell-based
Give the value, in units of µM, as a plain number.

Look over these answered cases.
# smilesRepr, experimentalSystem, measuredParameter, reportedValue
measured = [
    ("CCCCCCCCC[C@@H]1CC(=O)N[C@H](CC(C)C)C(=O)N[C@@H](CO)C(=O)N[C@@H]([C@@H](C)O)C(=O)N[C@H](CC(C)C)C(=O)N[C@@H]([C@@H](C)CC)C(=O)O1", "HCT-116", "IC50", 22),
    ("CC[C@H](C)[C@@H]1NC(=O)[C@@H](CC(C)C)NC(=O)[C@H]([C@@H](C)O)NC(=O)[C@H](CO)NC(=O)[C@@H](CC(C)C)NC(=O)C[C@@H](CCCCCCCCC(C)C)OC1=O", "HCT-116", "IC50", 17),
    ("CCCCCCCCCC[C@@H]1CC(=O)N[C@H](CC(C)C)C(=O)N[C@@H](CO)C(=O)N[C@@H]([C@@H](C)O)C(=O)N[C@H](CC(C)C)C(=O)N[C@@H]([C@@H](C)CC)C(=O)O1", "HCT-116", "IC50", 32),
]

// moving on: another record for IC50
In plain terms, `CCCCCCCCCCC[C@@H]1CC(=O)N[C@H](CC(C)C)C(=O)N[C@@H](CO)C(=O)N[C@@H]([C@@H](C)O)C(=O)N[C@H](CC(C)C)C(=O)N[C@@H]([C@@H](C)CC)C(=O)O1` has a documented IC50 of 18

---

tested on: MCF7; test: Cytotoxicity against human MCF7 cells; format: functional, cell-based
measuredParameter: IC50 (µM)
Give the value, in units of µM, as a plain number.

In plain terms, `CCCCCCCCC[C@@H]1CC(=O)N[C@H](CC(C)C)C(=O)N[C@@H](CO)C(=O)N[C@@H]([C@@H](C)O)C(=O)N[C@H](CC(C)C)C(=O)N[C@@H]([C@@H](C)CC)C(=O)O1` has a documented IC50 of 3

In plain terms, `CC[C@H](C)[C@@H]1NC(=O)[C@@H](CC(C)C)NC(=O)[C@H]([C@@H](C)O)NC(=O)[C@H](CO)NC(=O)[C@@H](CC(C)C)NC(=O)C[C@@H](CCCCCCC(C)C)OC1=O` has a documented IC50 of 6

In plain terms, `CCCCCCC[C@@H]1CC(=O)N[C@H](CC(C)C)C(=O)N[C@@H](CO)C(=O)N[C@@H]([C@@H](C)O)C(=O)N[C@H](CC(C)C)C(=O)N[C@@H]([C@@H](C)CC)C(=O)O1` has a documented IC50 of 4

In plain terms, `CCCCCC/C=C\CCC[C@@H]1CC(=O)N[C@H](CC(C)C)C(=O)N[C@@H](CO)C(=O)N[C@@H]([C@@H](C)O)C(=O)N[C@H](CC(C)C)C(=O)N[C@@H]([C@@H](C)CC)C(=O)O1` has a documented IC50 of 4

Ref: ChEMBL document CHEMBL3576857
